For each entry below, report its sfGFP reporter fluorescence value.
B1: library; numbered along this chain (parent)
chain: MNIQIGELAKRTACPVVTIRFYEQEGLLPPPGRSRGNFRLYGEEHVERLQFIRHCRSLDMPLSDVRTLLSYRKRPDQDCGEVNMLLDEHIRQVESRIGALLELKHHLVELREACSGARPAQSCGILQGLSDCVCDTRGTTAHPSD

Variants of: B1
assay-text: sfGFP reporter fluorescence (15 h) (µM FITC); higher = higher leak
condition-context: library round: Round 0; ligand: none
One number for each entry.

Some variants with known sfGFP reporter fluorescence results, for comparison:
sequence-change: C134K
sfGFP reporter fluorescence: 0.0742

sequence-change: C79M
sfGFP reporter fluorescence: 0.0597

sequence-change: E7L
sfGFP reporter fluorescence: 0.0618

sequence-change: M60A
sfGFP reporter fluorescence: 0.0643

sequence-change: P61D
sfGFP reporter fluorescence: 0.0729

Hi! Can you tell me sfGFP reporter fluorescence for each of these variants?
1. V16G
2. K104R
3. L129R
4. T139A
5. I97C
6. E81A

1. 0.0594
2. 0.0621
3. 0.0588
4. 0.0616
5. 0.0601
6. 0.0612

Hi! Can you tell me sfGFP reporter fluorescence for each of these variants?
1. H89D
2. G128C
3. E112I
4. H89M
5. L68A
6. L28W

0.0623
0.0629
0.0542
0.061
0.0623
0.061

Hi! Can you tell me sfGFP reporter fluorescence for each of these variants?
1. D135Q
2. P143Y
3. L110K
4. C134F
5. Y41I
6. E94W
7. P143A

1. 0.0574
2. 0.0585
3. 0.0577
4. 0.081
5. 0.0575
6. 0.0577
7. 0.0696

These entries and their values trace back to the supplement of paper PMC12783771.
